- Tested on: NCI-H2009
- EXPERIMENT_DESCRIPTION: relative viability (nuclei count vs DMSO), 5 days (fraction); higher = more cells survive
- CONDITION_INFO: first compound 0.8 µM
Catalogue of relative viability readings, one per entry.
Please give the numeric answer without any surrounding text.

Would you please look over these solved cases?
[
  {
    "MOLECULE": "COc1nc(C)cnc1NS(=O)(=O)c1cccnc1-c1ccc(-c2nnco2)cc1 [Zibotentan] + O=C(c1cc(Cc2n[nH]c(=O)c3ccccc23)ccc1F)N1CCN(C(=O)C2CC2)CC1 [Olaparib] (partner 8 µM)",
    "EXPERIMENTAL_ENDPOINT": "relative viability",
    "EXPERIMENTAL_RESULT": 0.671
  },
  {
    "MOLECULE": "O=c1cc(-c2cccc3c2Sc2ccccc2S3)oc(N2CCOCC2)c1 + CS(=O)(=O)N1CCN(Cc2cc3nc(-c4cccc5[nH]ncc45)nc(N4CCOCC4)c3s2)CC1 [Pictilisib] (partner 1 µM)",
    "EXPERIMENTAL_ENDPOINT": "relative viability",
    "EXPERIMENTAL_RESULT": 0.968
  }
]

Query string: Record request: relative viability value, item O=c1cc(-c2cccc3c2Sc2ccccc2S3)oc(N2CCOCC2)c1 + C[C@@H](Oc1cc(-c2cnn(C3CCNCC3)c2)cnc1N)c1c(Cl)ccc(F)c1Cl [Crizotinib] (partner 1 µM)
Result string: 1.05
